B1: glmS ribozyme (parent)
chain: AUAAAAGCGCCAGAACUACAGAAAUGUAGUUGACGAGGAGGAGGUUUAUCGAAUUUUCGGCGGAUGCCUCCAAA

Variants of: B1
test details: KM; higher = weaker cofactor use; RNA array
setup conditions: with glucosamine-6-phosphate
measured property: KM (µM)
Give a bare numeral; the unit µM is implied.

Worked cases, KM given:
AUAAAAGCGCCAGUACUACAGAAAUGUAGUUGACGAGGAGGAGGUUUAUCGAAUUUUCGGCGGAGGCCUCCAAA: 2120
AUAAAAGCGCCAGAACUACAGAAAUGUAGUUGACGAGGACGGGGUUUAUCGAAUUUUCGGCGGAUGCCUCCAAA: 1060
AUAAAAGCGCCCGAACUACAGAAAUGUACUUGACGAGGAGGAGGUUUAUCGAAUUUUCGGCGGAUGCCUCCAAA: 2770
AUAAAAGCGCCUGAACUACAGAAAUGUAGUUGACGAGGCGGAGGUUUAUCGGAUUUUCGGCGGAUGCCUCCAAA: 2140
AUAAAAGCGCCACAACUACAGAAAUGUAGUUGACGAGGAGGAGGUUUAUCGAACUUUCGGCGGAUGCCUCCAAA: 2870

Continue with the variant presented below.
Looking for the measured KM of `AUAAAAGCGCCAGAGCUACAGAAAUGUAGUUGACGAGGAGGAGGUUUAUCGAAUUUUCGGCGGCUGCCUCCAAA` , can you help?
2040
